The reported measurements were obtained from patent US7842469B2.

protocol.notes: Bioluminescence emission spectra
Format: physicochemical
condition.details: emission spectrum with native coelenterazine
quantity.measured: Wavelength (nm) mean
API: value field is a number in nm; no unit string.

-- ask State the recorded Wavelength (nm) mean for this entry: C124A/F199M: RLuc mutant C124A/F199M (protein) MASKVYDPEQRKRMITGPQWWARCKQMNVLDSFINYYDSEKHAENAVIFLHGNAASSYLWRHVVPHIEPVARCIIPDLIGMGKSGKSGNGSYRLLDHYKYLTAWFELLNLPKKIIFVGHDWGAALAFHYSYEHQDKIKAIVHAESVVDVIESWDEWPDIEEDIALIKSEEGEKMVLENNFFVETMLPSKIMRKLEPEEMAAYLEPFKEKGEVRRPTLSWPREIPLVKGGKPDVVQIVRNYNAYLRASDDLPKMFIESDPGFFSNAIVEGAKKFPNTEFVKVKGLHFSQEDAPDEMGKYIKSFVERVLKNEQ
-- reply 495

-- ask State the recorded Wavelength (nm) mean for this entry: C124A/M191L: RLuc mutant C124A/M191L (protein) MASKVYDPEQRKRMITGPQWWARCKQMNVLDSFINYYDSEKHAENAVIFLHGNAASSYLWRHVVPHIEPVARCIIPDLIGMGKSGKSGNGSYRLLDHYKYLTAWFELLNLPKKIIFVGHDWGAALAFHYSYEHQDKIKAIVHAESVVDVIESWDEWPDIEEDIALIKSEEGEKMVLENNFFVETMLPSKILRKLEPEEFAAYLEPFKEKGEVRRPTLSWPREIPLVKGGKPDVVQIVRNYNAYLRASDDLPKMFIESDPGFFSNAIVEGAKKFPNTEFVKVKGLHFSQEDAPDEMGKYIKSFVERVLKNEQ
-- reply 496

-- ask State the recorded Wavelength (nm) mean for this entry: C124A/F180A: RLuc mutant C124A/F180A (protein) MASKVYDPEQRKRMITGPQWWARCKQMNVLDSFINYYDSEKHAENAVIFLHGNAASSYLWRHVVPHIEPVARCIIPDLIGMGKSGKSGNGSYRLLDHYKYLTAWFELLNLPKKIIFVGHDWGAALAFHYSYEHQDKIKAIVHAESVVDVIESWDEWPDIEEDIALIKSEEGEKMVLENNAFVETMLPSKIMRKLEPEEFAAYLEPFKEKGEVRRPTLSWPREIPLVKGGKPDVVQIVRNYNAYLRASDDLPKMFIESDPGFFSNAIVEGAKKFPNTEFVKVKGLHFSQEDAPDEMGKYIKSFVERVLKNEQ
-- reply 504

-- ask State the recorded Wavelength (nm) mean for this entry: E44G/C124A: RLuc mutant E44G/C124A (protein) MASKVYDPEQRKRMITGPQWWARCKQMNVLDSFINYYDSEKHAGNAVIFLHGNAASSYLWRHVVPHIEPVARCIIPDLIGMGKSGKSGNGSYRLLDHYKYLTAWFELLNLPKKIIFVGHDWGAALAFHYSYEHQDKIKAIVHAESVVDVIESWDEWPDIEEDIALIKSEEGEKMVLENNFFVETMLPSKIMRKLEPEEFAAYLEPFKEKGEVRRPTLSWPREIPLVKGGKPDVVQIVRNYNAYLRASDDLPKMFIESDPGFFSNAIVEGAKKFPNTEFVKVKGLHFSQEDAPDEMGKYIKSFVERVLKNEQ
-- reply 502

-- ask State the recorded Wavelength (nm) mean for this entry: C124A/M253L: RLuc mutant C124A/M253L (protein) MASKVYDPEQRKRMITGPQWWARCKQMNVLDSFINYYDSEKHAENAVIFLHGNAASSYLWRHVVPHIEPVARCIIPDLIGMGKSGKSGNGSYRLLDHYKYLTAWFELLNLPKKIIFVGHDWGAALAFHYSYEHQDKIKAIVHAESVVDVIESWDEWPDIEEDIALIKSEEGEKMVLENNFFVETMLPSKIMRKLEPEEFAAYLEPFKEKGEVRRPTLSWPREIPLVKGGKPDVVQIVRNYNAYLRASDDLPKLFIESDPGFFSNAIVEGAKKFPNTEFVKVKGLHFSQEDAPDEMGKYIKSFVERVLKNEQ
-- reply 488

-- ask State the recorded Wavelength (nm) mean for this entry: C124A/S287L: RLuc mutant C124A/S287L (protein) MASKVYDPEQRKRMITGPQWWARCKQMNVLDSFINYYDSEKHAENAVIFLHGNAASSYLWRHVVPHIEPVARCIIPDLIGMGKSGKSGNGSYRLLDHYKYLTAWFELLNLPKKIIFVGHDWGAALAFHYSYEHQDKIKAIVHAESVVDVIESWDEWPDIEEDIALIKSEEGEKMVLENNFFVETMLPSKIMRKLEPEEFAAYLEPFKEKGEVRRPTLSWPREIPLVKGGKPDVVQIVRNYNAYLRASDDLPKMFIESDPGFFSNAIVEGAKKFPNTEFVKVKGLHFLQEDAPDEMGKYIKSFVERVLKNEQ
-- reply 496

-- ask State the recorded Wavelength (nm) mean for this entry: A54G/A55G/C124A: RLuc mutant A54G/A55G/C124A (protein) MASKVYDPEQRKRMITGPQWWARCKQMNVLDSFINYYDSEKHAENAVIFLHGNGGSSYLWRHVVPHIEPVARCIIPDLIGMGKSGKSGNGSYRLLDHYKYLTAWFELLNLPKKIIFVGHDWGAALAFHYSYEHQDKIKAIVHAESVVDVIESWDEWPDIEEDIALIKSEEGEKMVLENNFFVETMLPSKIMRKLEPEEFAAYLEPFKEKGEVRRPTLSWPREIPLVKGGKPDVVQIVRNYNAYLRASDDLPKMFIESDPGFFSNAIVEGAKKFPNTEFVKVKGLHFSQEDAPDEMGKYIKSFVERVLKNEQ
-- reply 492
